- Species on record: Rattus norvegicus
- protocol_details: Open TG-GATES - Regimen: Daily Repeat
- Format: toxicity, organism-based, Sprague-Dawley
- Design: regimen Daily Repeat, gender Male, age 6 weeks
- condition_parameters: in vivo, po, 1000 mg/kg, […], tissue Blood, route gavage, dose level High, time 7 day
readout: Neu (%)

CC(S)C(=O)NCC(=O)O (centres undefined) [TIOPRONIN]	18.8
O=C(O)c1ccccc1Nc1ccccc1 [FENAMIC ACID]	23.3
CCCCNC(=O)NS(=O)(=O)c1ccc(C)cc1 [TOLBUTAMIDE]	16.2
CC(=O)[C@@]1(O)CC[C@H]2[C@@H]3C=C(Cl)C4=CC(=O)CC[C@]4(C)[C@H]3CC[C@@]21C [CHLORMADINONE]	11.8

----------
- Organism: Rattus norvegicus
- protocol_details: Open TG-GATES - Regimen: Daily Repeat
- Type: toxicity, organism-based, Sprague-Dawley
- Design: regimen Daily Repeat, gender Male, age 6 weeks
- condition_parameters: in vivo, po, 0 mg/kg, […], tissue Plasma, route gavage, dose level Control, time 7 day
readout: PL (mg/dL)

CC(=O)[C@@]1(O)CC[C@H]2[C@@H]3C=C(Cl)C4=CC(=O)CC[C@]4(C)[C@H]3CC[C@@]21C	147.2
CCCCNC(=O)NS(=O)(=O)c1ccc(C)cc1 [TOLBUTAMIDE]	148.8
CN(CCOc1ccc(CC2SC(=O)NC2=O)cc1)c1ccccn1.O=C(O)/C=C\C(=O)O (configuration not stated) [ROSIGLITAZONE MALEATE]	148.6
CN(C/C=C/C#CC(C)(C)C)Cc1cccc2ccccc12	140.2
O=C(O)c1ccccc1Nc1ccccc1	148.4
COc1ccc([C@@H]2Sc3ccccc3N(CCN(C)C)C(=O)[C@@H]2OC(C)=O)cc1	162.4
Nc1ccc(Cc2ccc(N)cc2)cc1	138.6
NS(=O)(=O)c1cc(C(=O)O)c(NCc2ccco2)cc1Cl [FUROSEMIDE]	168
CCN(CC)C(=S)SSC(=S)N(CC)CC	138.4
CC(S)C(=O)NCC(=O)O (configuration not stated)	158.6
CCO	143.6
O=c1ccc2ccccc2o1	142.6

----------
- Species: Rattus norvegicus
- protocol_details: Open TG-GATES - Regimen: Daily Repeat
- Format: toxicity, organism-based, Sprague-Dawley
- Design: regimen Daily Repeat, gender Male, age 6 weeks
- condition_parameters: in vivo, po, 300 mg/kg, […], route gavage, dose level Middle, time 28 day
readout: TERMINAL_BW (g)

CC(=O)[C@@]1(O)CC[C@H]2[C@@H]3C=C(Cl)C4=CC(=O)CC[C@]4(C)[C@H]3CC[C@@]21C	346.1
CC(S)C(=O)NCC(=O)O (centres undefined)	381.6
CCCCNC(=O)NS(=O)(=O)c1ccc(C)cc1 [TOLBUTAMIDE]	387.4
O=C(O)c1ccccc1Nc1ccccc1	435

----------
- Organism: Rattus norvegicus
- protocol_details: Open TG-GATES - Regimen: Daily Repeat
- Type: toxicity, organism-based, Sprague-Dawley
- Parameters: regimen Daily Repeat, gender Male, age 6 weeks
- condition_parameters: in vivo, po, 1000 mg/kg, […], tissue Plasma, route gavage, dose level High, time 28 day
readout: Ca

O=C(O)c1ccccc1Nc1ccccc1	10.8 mg/dL
CC(S)C(=O)NCC(=O)O (centres undefined)	10.9 mg/dL
CCCCNC(=O)NS(=O)(=O)c1ccc(C)cc1 [TOLBUTAMIDE]	10.8 mg/dL
CC(=O)[C@@]1(O)CC[C@H]2[C@@H]3C=C(Cl)C4=CC(=O)CC[C@]4(C)[C@H]3CC[C@@]21C	10.5 mg/dL

----------
Listed below: KIDNEY_L values for each entry.
- Species: Rattus norvegicus
- protocol_details: Open TG-GATES - Regimen: Daily Repeat
- Assay type: toxicity, organism-based, Sprague-Dawley
- Design: regimen Daily Repeat, gender Male, age 6 weeks
- condition_parameters: in vivo, po, 1000 mg/kg, […], tissue Kidney, route gavage, dose level High, time 28 day
readout: KIDNEY_L (g)

O=C(O)c1ccccc1Nc1ccccc1	1.7
CC(S)C(=O)NCC(=O)O (centres undefined)	1.5
CC(=O)[C@@]1(O)CC[C@H]2[C@@H]3C=C(Cl)C4=CC(=O)CC[C@]4(C)[C@H]3CC[C@@]21C	1.2
CCCCNC(=O)NS(=O)(=O)c1ccc(C)cc1 [TOLBUTAMIDE]	1.4

----------
Listed below: TP values for each entry.
- Organism: Rattus norvegicus
- protocol_details: Open TG-GATES - Regimen: Daily Repeat
- Type: toxicity, organism-based, Sprague-Dawley
- Design: regimen Daily Repeat, gender Male, age 6 weeks
- condition_parameters: in vivo, po, 100 mg/kg, 72 h, tissue Plasma, route gavage, dose level Low, time 3 day
readout: TP (g/dL)

CCCCNC(=O)NS(=O)(=O)c1ccc(C)cc1 [TOLBUTAMIDE]	5.5
CC(S)C(=O)NCC(=O)O (centres undefined)	5.6
O=C(O)c1ccccc1Nc1ccccc1	5.6
CC(=O)[C@@]1(O)CC[C@H]2[C@@H]3C=C(Cl)C4=CC(=O)CC[C@]4(C)[C@H]3CC[C@@]21C	5.5

----------
- Organism: Rattus norvegicus
- protocol_details: Open TG-GATES - Regimen: Daily Repeat
- Format: toxicity, organism-based, Sprague-Dawley
- Set-up: regimen Daily Repeat, gender Male, age 6 weeks
- condition_parameters: in vivo, po, 300 mg/kg, 72 h, tissue Plasma, route gavage, dose level Middle, time 3 day
readout: A/G

CCCCNC(=O)NS(=O)(=O)c1ccc(C)cc1 [TOLBUTAMIDE]	0.9
CC(=O)[C@@]1(O)CC[C@H]2[C@@H]3C=C(Cl)C4=CC(=O)CC[C@]4(C)[C@H]3CC[C@@]21C	1.2
O=C(O)c1ccccc1Nc1ccccc1	0.9
CC(S)C(=O)NCC(=O)O (centres undefined)	1.2

----------
- Organism: Rattus norvegicus
- protocol_details: Open TG-GATES - Regimen: Daily Repeat
- Assay type: toxicity, organism-based, Sprague-Dawley
- Set-up: regimen Daily Repeat, gender Male, age 6 weeks
- condition_parameters: in vivo, po, 1000 mg/kg, […], tissue Plasma, route gavage, dose level High, time 7 day
Listed below: ALT values for each entry.
readout: ALT (IU/L)

CC(=O)[C@@]1(O)CC[C@H]2[C@@H]3C=C(Cl)C4=CC(=O)CC[C@]4(C)[C@H]3CC[C@@]21C	45.8
CCCCNC(=O)NS(=O)(=O)c1ccc(C)cc1 [TOLBUTAMIDE]	48.6
O=C(O)c1ccccc1Nc1ccccc1	38
CC(S)C(=O)NCC(=O)O (centres undefined)	45

----------
- Organism: Rattus norvegicus
- protocol_details: Open TG-GATES - Regimen: Daily Repeat
- Format: toxicity, organism-based, Sprague-Dawley
- Parameters: regimen Daily Repeat, gender Male, age 6 weeks
- condition_parameters: in vivo, po, 1000 mg/kg, […], tissue Liver, route gavage, dose level High, time 28 day
readout: LIVER

CCCCNC(=O)NS(=O)(=O)c1ccc(C)cc1 [TOLBUTAMIDE]	18.7 g
O=C(O)c1ccccc1Nc1ccccc1	18.7 g
CC(=O)[C@@]1(O)CC[C@H]2[C@@H]3C=C(Cl)C4=CC(=O)CC[C@]4(C)[C@H]3CC[C@@]21C	14.6 g
CC(S)C(=O)NCC(=O)O (centres undefined)	15.3 g

----------
- Organism: Rattus norvegicus
- protocol_details: Open TG-GATES - Regimen: Daily Repeat
- Format: toxicity, organism-based, Sprague-Dawley
- Design: regimen Daily Repeat, gender Male, age 6 weeks
- condition_parameters: in vivo, po, 0 mg/kg, […], tissue Plasma, route gavage, dose level Control, time 28 day
Listed below: K values for each entry.
readout: K (meq/L)

COc1ccc([C@@H]2Sc3ccccc3N(CCN(C)C)C(=O)[C@@H]2OC(C)=O)cc1	3.7
Nc1ccc(Cc2ccc(N)cc2)cc1	3.7
CC(=O)[C@@]1(O)CC[C@H]2[C@@H]3C=C(Cl)C4=CC(=O)CC[C@]4(C)[C@H]3CC[C@@]21C	4.4
CN(CCOc1ccc(CC2SC(=O)NC2=O)cc1)c1ccccn1.O=C(O)/C=C\C(=O)O (stereo not drawn) [ROSIGLITAZONE MALEATE]	4.4
CCCCC1C(=O)N(c2ccccc2)N(c2ccccc2)C1=O	4.5
O=C(O)c1ccccc1Nc1ccccc1	4
CCCCNC(=O)NS(=O)(=O)c1ccc(C)cc1 [TOLBUTAMIDE]	4
CC(S)C(=O)NCC(=O)O (stereo not drawn)	4.1
CCN(CC)C(=S)SSC(=S)N(CC)CC	4
NS(=O)(=O)c1cc(C(=O)O)c(NCc2ccco2)cc1Cl [FUROSEMIDE]	3.9
CCO	4.3
O=c1ccc2ccccc2o1	4.5
CN(C/C=C/C#CC(C)(C)C)Cc1cccc2ccccc12	4

----------
- Organism: Rattus norvegicus
- protocol_details: Open TG-GATES - Regimen: Single
- Assay type: toxicity, organism-based, Sprague-Dawley
- Set-up: regimen Single, gender Male, age 6 weeks
- condition_parameters: in vivo, po, 0 mg/kg, 6 h, tissue Blood, route gavage, dose level Control
readout: Ret

CCCCNC(=O)NS(=O)(=O)c1ccc(C)cc1 [TOLBUTAMIDE]	8.1%
Nc1ccc(Cc2ccc(N)cc2)cc1	8%
NS(=O)(=O)c1cc(C(=O)O)c(NCc2ccco2)cc1Cl [FUROSEMIDE]	8%
CN(C)CCCN1c2ccccc2Sc2ccc(Cl)cc21	7.6%
CC(=O)[C@@]1(O)CC[C@H]2[C@@H]3C=C(Cl)C4=CC(=O)CC[C@]4(C)[C@H]3CC[C@@]21C	7.8%
O=C(O)c1ccccc1Nc1ccccc1	8.3%
CN(C/C=C/C#CC(C)(C)C)Cc1cccc2ccccc12	6.6%
CN(CCOc1ccc(CC2SC(=O)NC2=O)cc1)c1ccccn1.O=C(O)/C=C\C(=O)O (stereo not given) [ROSIGLITAZONE MALEATE]	9.7%
CC(S)C(=O)NCC(=O)O (stereo not given)	8.1%
CCN(CC)C(=S)SSC(=S)N(CC)CC	7.1%
